# System name: T1, 4H906-bN
# T1 chain: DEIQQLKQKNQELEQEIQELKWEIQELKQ
# Run description: two-hybrid library CCNG1;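 note: natural log of median RNA to DNA barcode read ratio; higher means stronger binding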
Reported property: interaction score
One number for each entry.

A selection of reference data follows.
> print(dat)
                                     binder  experimental.result
1  DENQQLEQKIQELKQENQELKWKIQELEQ [4H1373-bN]                -1.37
2  DEIAQLEQKNAELKQEIAELKWKIAQLKQ [4H462-bA]                0.676
3  DENQQLKQKNQELKQEIQELEWEIQELEQ [4H1985-bN]                -1.03
4  DENQQLEQKIQELKQEIQELKWKNQELEQ [4H1359-bN]                -1.22
5  DEIQQLKQEIQELEQKNQELKWEIQELKQ [4H570-bN]                -1.16

// batch mode: one interaction score value per listed entry
1. DKNQQLEQKIQELKQENQELEWKIQELKQ [4H3414-bN]
2. DEIQQLKQEIQELKQEIQELKWKNQELEQ [4H591-bN]
3. DEIQQLKQKNQELEQEIQELKWEIQELKQ [4H906-bN]
4. DENQQLKQKIQELEQEIQELKWENQELKQ [4H1804-bN]
5. DENQQLEQKIQELKQKNQELEWEIQELEQ [4H1393-bN]
6. DKNQQLEQEIQELEQKNQELKWEIQELEQ [4H3129-bN]
7. DENQQLKQEIQELKQENQELKWKIQELEQ [4H1629-bN]
8. DENQQLKQEIQELEQEIQELEWKNQELKQ [4H1544-bN]

## Result
1: -1.04; 2: -1.13; 3: -0.198; 4: -0.241; 5: -0.497; 6: -1.2; 7: -1.39; 8: -0.343

// batch mode: one interaction score value per listed entry
1. DKNQQLEQEIQELKQKIQELEWENQELKQ [4H3172-bN]
2. DKNQQLKQENQELKQKIQELKWEIQELEQ [4H3817-bN]

## Result
1. -1.5
2. -1.83

// batch mode: one interaction score value per listed entry
1. DENQQLEQKNQELEQKIQELKWEIQELEQ [4H1449-bN]
2. DENQQLEQEIQELEQKNQELKWEIQELEQ [4H1081-bN]
3. DKNQQLKQEIQELEQKIQELKWKNQELEQ [4H3631-bN]

## Result
[-1.69, -1.43, -0.602]
